Field: CP3 Shift. Provide a value for each of the molecules that follow.
# System: HCT116 colorectal cancer cells
# Assay notes: Cisplatin Sensitization Assay (96 h cell viability MTS)
# Assay type: cell-based
# Applied conditions: concentration of compound required to reduce the IC50 of Cisplatin alone by at least 3-fold; HCT116, 96 h MTS
Please give a number only; it is taken to be in µM.

## Input Provide the documented CP3 Shift with HCT116 colorectal cancer cells as the system for CC(C)S(=O)(=O)c1ccc(-c2cnc(N)c(C#Cc3cccs3)n2)cc1
## Output 1.25

## Input Provide the documented CP3 Shift with HCT116 colorectal cancer cells as the system for CC(C)S(=O)(=O)c1ccc(-c2cnc(N)c(C#Cc3ccccc3)n2)cc1
## Output 2.5

## Input Provide the documented CP3 Shift with HCT116 colorectal cancer cells as the system for CC(C)S(=O)(=O)c1ccc(-c2cnc(N)c(C#Cc3ccccc3F)n2)cc1
## Output 2.5

## Input Provide the documented CP3 Shift with HCT116 colorectal cancer cells as the system for CC(C)S(=O)(=O)c1ccc(-c2cnc(N)c(C#Cc3cccc(N)c3)n2)cc1
## Output 0.312

## Input Provide the documented CP3 Shift with HCT116 colorectal cancer cells as the system for CC(C)S(=O)(=O)c1ccc(-c2cnc(N)c(C#Cc3ccccn3)n2)cc1
## Output 2.5

## Input Provide the documented CP3 Shift with HCT116 colorectal cancer cells as the system for Nc1ncc(-c2ccc(S(=O)(=O)C3CCOCC3)cc2)nc1C#Cc1cccc(O)c1
## Output 0.079

## Input Provide the documented CP3 Shift with HCT116 colorectal cancer cells as the system for CC(C)S(=O)(=O)c1ccc(-c2cnc(N)c(C#Cc3cccc(O)c3)n2)cc1
## Output 0.118
